This collection of values is drawn from the supplement of paper PMC5908809.

System: normal primary NK cells, pool 2 (3 donors) (IL-2 2.5 ng/mL)
Assay: drug sensitivity score (DSS) (DSS units); higher = more sensitive; extreme values may be limits of the assay
Details: 72 h
// label = criterion met if drug sensitivity score is not less than 6, otherwise criterion not met

Hi, just wondering whether NC(=O)Nc1cc(-c2cccc(F)c2)sc1C(=O)N[C@H]1CCCNC1 [AZD7762] (max concentration tested 1000 nM) shows drug sensitivity score of 6 or higher.
criterion not met

----------
Tested on: KHYG-1 (IL-2 2.5 ng/mL)
Experiment: percent inhibition of viability; higher = more inhibition
Conditions: 72 h; 2500 nM
READOUT_KIND: percent inhibition of viability
# number then unit; no other words

The following compounds have reported results that may help.
compound="O=C(Nc1cc(Cl)cc2c1[nH]c1cnccc12)c1cccnc1 [PS-1145] (max concentration tested 25000 nM)" endpoint_value=7.66%
compound="C[C@@H]1CN(CC(=O)Nc2ccc3c(c2)Cc2cccc(-c4cc(=O)cc(N5CCOCC5)o4)c2S3)C[C@H](C)O1 (max concentration tested 25000 nM)" endpoint_value=18.6%
compound="CN[C@@H](C)C(=O)N[C@H](C(=O)N1CCC[C@H]1c1nc(C(=O)c2ccc(F)cc2)cs1)C1CCCCC1 [LCL161] (max concentration tested 25000 nM)" endpoint_value=87.9%

Proceed to the following item.
Note to self: percent inhibition of viability recorded for CC(C)(C)c1nc(-c2cccc(NS(=O)(=O)c3c(F)cccc3F)c2F)c(-c2ccnc(N)n2)s1 [Dabrafenib] (max concentration tested 2500 nM) was 30.8%

----------
Tested on: NKL (IL-2 2.5 ng/mL)
Assay: percent inhibition of viability; higher = more inhibition
Settings: 72 h; 1 nM
Would you kindly list percent inhibition of viability for each of these compounds?
Numbers only, in %.

The following compounds have reported results that may help.
compound="Cc1c(N)nc([C@H](CC(N)=O)NC[C@H](N)C(N)=O)nc1C(=O)N[C@H](C(=O)N[C@H](C)[C@@H](O)[C@H](C)C(=O)N[C@H](C(=O)NCCc1nc(-c2nc(C(=O)NCCC[S+](C)C)cs2)cs1)[C@@H](C)O)[C@@H](OC1OC(CO)C(O)C(O)C1OC1OC(CO)C(O)C(OC(N)=O)C1O)c1cnc[nH]1 (stereo partly drawn) [Bleomycin] (max concentration tested 10000 nM)" endpoint_value=-14.6
compound="NC(=O)c1cccc(-c2cccc(OC(=O)NC3CCCCC3)c2)c1 [URB597] (max concentration tested 1000 nM)" endpoint_value=0.02

Proceed to the following item.
Note to self: percent inhibition of viability recorded for CC1(C)CCC(c2ccc(Cl)cc2)=C(CN2CCN(c3ccc(C(=O)NS(=O)(=O)c4ccc(N[C@H](CCN5CCOCC5)CSc5ccccc5)c(S(=O)(=O)C(F)(F)F)c4)cc3)CC2)C1 [Navitoclax] (max concentration tested 10000 nM) was -5.66

----------
Tested on: YT (IL-2 2.5 ng/mL)
Experiment: percent inhibition of viability; higher = more inhibition
Conditions: 72 h; 1000 nM
Under this convention, y denotes percent inhibition of viability strictly below 20% and n denotes percent inhibition of viability at or above 20%.

Worked set:
compound="NC(=O)NO [Hydroxyurea] (max concentration tested 100000 nM)" class_assignment=y
compound="O=C(O)CC[C@H]1CC[C@@](c2cc(F)ccc2F)(S(=O)(=O)c2ccc(Cl)cc2)CC1 [MK-0752] (max concentration tested 1000 nM)" class_assignment=y
compound="CNC(=O)c1ccccc1Sc1ccc2c(/C=C/c3ccccn3)n[nH]c2c1 [Axitinib] (max concentration tested 10000 nM)" class_assignment=n

Does the reported percent inhibition of viability of the following compound sit strictly below 20%? Nc1nc(Cl)nc2c1ncn2[C@@H]1O[C@H](CO)[C@@H](O)[C@@H]1F [Clofarabine] (max concentration tested 10000 nM)
n

----------
System: NKL (IL-2 2.5 ng/mL)
Test: percent inhibition of viability; higher = more inhibition
Conditions: 72 h; 10000 nM
READOUT_KIND: percent inhibition of viability (%)
Give bare numbers, in %.

The following compounds have reported results that may help.
compound="CC1(COc2ccc3c(c2)ncn3-c2ccc3cccc(N4CCC(N)CC4)c3n2)COC1 [Crenolanib] (max concentration tested 10000 nM)" readout_kind="percent inhibition of viability" unit_info=% endpoint_value=103
compound="CC1(C)CCC(c2ccc(Cl)cc2)=C(CN2CCN(c3ccc(C(=O)NS(=O)(=O)c4ccc(N[C@H](CCN5CCOCC5)CSc5ccccc5)c(S(=O)(=O)C(F)(F)F)c4)cc3)CC2)C1 [Navitoclax] (max concentration tested 10000 nM)" readout_kind="percent inhibition of viability" unit_info=% endpoint_value=97.8
compound="CO[C@H](C(=O)[C@@H](O)[C@@H](C)O)[C@@H]1Cc2cc3cc(O[C@H]4C[C@@H](O[C@@H]5C[C@@H](O)[C@H](O)[C@@H](C)O5)[C@H](O)[C@@H](C)O4)c(C)c(O)c3c(O)c2C(=O)[C@H]1O[C@H]1C[C@@H](O[C@@H]2C[C@@H](O)[C@@H](O[C@@H]3C[C@](C)(O)[C@H](O)[C@@H](C)O3)[C@@H](C)O2)[C@H](O)[C@@H](C)O1 [Plicamycin] (max concentration tested 10000 nM)" readout_kind="percent inhibition of viability" unit_info=% endpoint_value=110
compound="CCn1c(C(=O)N(C2CC2)C2CC2)cc2c3c(ncn3C)c(Nc3cc(C)n(C)n3)nc21 (max concentration tested 10000 nM)" readout_kind="percent inhibition of viability" unit_info=% endpoint_value=70.4
compound="Nc1nc(Cl)nc2c1ncn2[C@@H]1O[C@H](CO)[C@@H](O)[C@@H]1F [Clofarabine] (max concentration tested 10000 nM)" readout_kind="percent inhibition of viability" unit_info=% endpoint_value=105

Give percent inhibition of viability for all compounds that follow.
1. CCN(CC)CCOc1ccc(C(=C(Cl)c2ccccc2)c2ccccc2)cc1 [Clomifene] (max concentration tested 10000 nM)
2. CO[C@@H](C(=O)N1Cc2[nH]nc(NC(=O)c3ccc(N4CCN(C)CC4)cc3)c2C1)c1ccccc1 [Danusertib] (max concentration tested 10000 nM)
3. CS(=O)(=O)N1CCN(Cc2cc3nc(-c4cccc5[nH]ncc45)nc(N4CCOCC4)c3s2)CC1 [Pictilisib] (max concentration tested 10000 nM)

1: 89.1; 2: 64.9; 3: 73.1

----------
Test system: NK-92 (IL-2 2.5 ng/mL)
Test: percent inhibition of viability; higher = more inhibition
Conditions: 72 h; 1 nM
READOUT_KIND: percent inhibition of viability

The following molecules have reported results that may help.
molecule="O=C(NC[C@H](O)CO)c1ccncc1Nc1ccc(I)cc1F [Pimasertib] (max concentration tested 10000 nM)" endpoint_value=6.11%
molecule="Cn1ncnc1[C@H]1c2n[nH]c(=O)c3cc(F)cc(c23)N[C@@H]1c1ccc(F)cc1 [Talazoparib] (max concentration tested 1000 nM)" endpoint_value=8.78%

Proceed to the following item.
Note to self: percent inhibition of viability recorded for CCCc1cc(C)[nH]c(=O)c1CNC(=O)c1cc(-c2ccnc(N3CCN(C)CC3)c2)cc2c1cnn2C(C)C [GSK343] (max concentration tested 10000 nM) was -15.4%

----------
Test system: normal primary NK cells, pool 1 (3 donors) (IL-2 2.5 ng/mL)
Experiment: percent inhibition of viability; higher = more inhibition
Conditions: 72 h; 2500 nM
Would you kindly list percent inhibition of viability for each of these compounds?
Numbers only, in %.

The following compounds have reported results that may help.
compound="CC(C)(C)c1nc(-c2cccc(NS(=O)(=O)c3c(F)cccc3F)c2F)c(-c2ccnc(N)n2)s1 [Dabrafenib] (max concentration tested 2500 nM)" system_tested="normal primary NK cells, pool 1 (3 donors) (IL-2 2.5 ng/mL)" endpoint_value=3.89
compound="C[C@@H]1CN(CC(=O)Nc2ccc3c(c2)Cc2cccc(-c4cc(=O)cc(N5CCOCC5)o4)c2S3)C[C@H](C)O1 (max concentration tested 25000 nM)" system_tested="normal primary NK cells, pool 1 (3 donors) (IL-2 2.5 ng/mL)" endpoint_value=10
compound="Cc1cc([C@@H](C)Nc2ccccc2C(=O)O)c2nc(N3CCOCC3)cc(=O)n2c1 [AZD-6482] (max concentration tested 2500 nM)" system_tested="normal primary NK cells, pool 1 (3 donors) (IL-2 2.5 ng/mL)" endpoint_value=19.6

Note to self: percent inhibition of viability recorded for COC[C@H](NC(=O)c1cnc(C)s1)C(=O)N[C@@H](COC)C(=O)N[C@@H](Cc1ccccc1)C(=O)[C@@]1(C)CO1 [Oprozomib] (max concentration tested 2500 nM) was 99.8

----------
Test system: normal NK cells expanded with K562-aAPC
Experiment: percent inhibition of viability; higher = more inhibition
Details: 72 h; IL-2 2.5 ng/mL; 0.1 nM
READOUT_KIND: percent inhibition of viability (%)
One number for each entry, in %.

The following compounds have reported results that may help.
compound="COc1cccc2c1C(=O)c1c(O)c3c(c(O)c1C2=O)C[C@@](O)(/C(CO)=N/NC(=O)CCCCCN1C(=O)C=CC1=O)C[C@@H]3O[C@H]1C[C@H](N)[C@H](O)[C@H](C)O1 [Aldoxorubicin] (max concentration tested 1000 nM)" readout_kind="percent inhibition of viability" unit_info=% endpoint_value=0.3
compound="C[C@]12CC[C@@H]3c4ccc(O)cc4C[C@@H](CCCCCCCCC[S+]([O-])CCCC(F)(F)C(F)(F)F)[C@H]3[C@@H]1CC[C@@H]2O (stereo partly drawn) [Fulvestrant] (max concentration tested 1000 nM)" readout_kind="percent inhibition of viability" unit_info=% endpoint_value=-7.38

Proceed to the following item.
Entry Cc1cc2c(F)c(Oc3ncnn4cc(OC[C@@H](C)O)c(C)c34)ccc2[nH]1 [Brivanib] (max concentration tested 1000 nM) , tested on normal NK cells expanded with K562-aAPC, has a reported percent inhibition of viability of 0.76
